growth inhibition reference
Assay: NCI Yeast Anticancer Drug Screen. Data for the mlh1 strain (AID 171);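 also: 0% = growth of vehicle-treated control cultures of the same strain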
Conditions: S. cerevisiae mlh1 strain growth inhibition; at 3.7 µM; hits give high values
Experimental: Growth inhibition of yeast strains with defined genetic alterations is measured as a screen for potential anti-cancer activity. Selected strains with alterations in DNA damage repair or cell cycle control were exposed to compounds and growth inhibition was measured relative to vehicle treated controls. The strain used in this assay is mlh1
The panel holds about 79,000 compounds, 15% with a hit somewhere; the sample as a whole holds those more often.

{"columns": ["molecule", "growth inhibition [%]"],
 "data": [
  ["CCCC(O)C1CC(C(C)C)CCC1C (configuration not stated)", 0],
  ["Cc1nc(Nc2ccccc2[N+](=O)[O-])sc1C(=O)CC(=O)C(=O)Nc1c(C(C)C)cccc1C(C)C", 3],
  ["CCN(CC)Cc1cc(Nc2c3ccccc3nc3c2[nH]c2ccccc23)cc(CN(CC)CC)c1O", 2],
  ["Cc1nc2c(Br)cc(Br)cc2c(=O)n1-c1ccccc1NC1OCC(O)C(O)C1O (configuration not stated)", 4],
  ["O=c1[nH]c2ccc(Cl)cc2o1", -33],
  ["CN(CCN(C)Cc1ccccc1)Cc1ccccc1", 4],
  ["COc1ccc(/C=C/c2sc3ccccc3[n+]2CCCCI)cc1OC", -4],
  ["CC(=O)ON=C1C=CC(=C(C#N)c2ccc(Cl)cc2)C=C1", 3],
  ["CC(C)=NOC(=O)Nc1ccc(Cl)cc1", -17],
  ["N/C(=N/N=C/c1cc(Br)cc(Br)c1O)NO", -40],
  ["CCOC(=O)COc1c(OC)cc(C2C3=C(COC3=O)Oc3cc4c(cc32)OCO4)cc1OC (configuration not stated)", -1],
  ["COc1ccc(NC(=O)CC2SC(=Nc3ccccc3C)NC2=O)c([N+](=O)[O-])c1 (configuration not stated)", -1],
  ["Nc1nc2ccc(NCc3ccc(C(=O)NC(CCC(=O)O)C(=O)O)cc3)cc2c(=O)[nH]1 (configuration not stated)", 2],
  ["CCCCc1ccc(-n2c(C)c(COC(=O)NC)c(COC(=O)NC)c2C)cc1", -18],
  ["Cc1cc(O)c(C(C)C)cc1C1(c2cc(C(C)C)c(O)cc2C)OC(=O)c2ccccc21", 3],
  ["CCOC1(c2cccc([N+](=O)[O-])c2)c2ccccc2Oc2ccccc21", -2],
  ["COc1ccc([N+](=O)[O-])c2c(NCCCN(C)C)c3ccccc3nc12", 2],
  ["CCOC(=O)c1cc([N+](=O)[O-])c(Sc2ncnc3nc[nH]c23)c([N+](=O)[O-])c1", -23],
  ["CN(C)N=Nc1ccccc1C(=O)NC#N", 4],
  ["CS(=O)(=O)SCc1ccc([N+](=O)[O-])cc1", 14],
  ["O=C(/C=C(/c1ccccc1)N1CCCCC1)c1ccccc1", -1],
  ["COc1nc2c(c(=O)n1C)N=C(c1ccccc1)[C@H](C(CC(=O)c1ccccc1)c1ccccc1)C(c1ccccc1)N2 (some centres not stated)", -38]
]}
